# experimentalTarget: μ opioid receptor (Homo sapiens, UniProt P35372)
# Sequence (P35372 whole entry): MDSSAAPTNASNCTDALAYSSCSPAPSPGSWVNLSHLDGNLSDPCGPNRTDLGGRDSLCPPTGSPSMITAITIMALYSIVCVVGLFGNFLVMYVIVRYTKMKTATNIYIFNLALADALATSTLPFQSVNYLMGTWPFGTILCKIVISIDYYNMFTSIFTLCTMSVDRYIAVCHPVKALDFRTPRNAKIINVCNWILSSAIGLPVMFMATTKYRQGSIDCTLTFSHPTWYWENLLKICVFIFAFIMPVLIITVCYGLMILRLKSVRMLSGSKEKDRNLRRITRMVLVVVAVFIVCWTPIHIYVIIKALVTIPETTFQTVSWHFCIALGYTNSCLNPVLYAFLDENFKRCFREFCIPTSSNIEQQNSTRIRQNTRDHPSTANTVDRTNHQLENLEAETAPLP
# assayName: [35S]GTPγS binding mediated by the μ opioid receptor, agonist effects
# Assay type: biochemical
# conditionDetails: [35S]GTPγS binding
reportedEndpoint: Functional Activity at μ opioid receptor

Some solved entries appear below for comparison.
CC(CCCCCCC(C)C(=O)Oc1ccc2c(c1)[C@@]13CCCC[C@H]1[C@@H](C2)N(CC1CCC1)CC3)C(=O)Oc1ccc2c(c1)[C@@]13CCCC[C@H]1[C@@H](C2)N(CC1CCC1)CC3 (stereo partly shown) = Partial Agonist
Oc1ccc2c(c1)[C@@]13CCCC[C@H]1[C@@H](C2)N(CC1CCC1)CC3 = Partial Agonist
O=C(CCCCCCCCC(=O)Oc1ccc2c(c1)[C@@]13CCCC[C@H]1[C@@H](C2)N(CC1CCC1)CC3)Oc1ccc2c(c1)[C@@]13CCCC[C@H]1[C@@H](C2)N(CC1CCC1)CC3 [compound 10, reference compound] = Partial Agonist
CC(CCCCCCC(C)C(=O)Oc1ccc2c(c1)[C@@]13CCCC[C@H]1[C@@H](C2)N(CC1CCC1)CC3)C(=O)O (stereo partly shown) = Partial Agonist

What value of Functional Activity at μ opioid receptor has been recorded for this entry: CC(C)(CCCCCCC(C)(C)C(=O)Oc1ccc2c(c1)[C@@]13CCCC[C@H]1[C@@H](C2)N(CC1CCC1)CC3)C(=O)Oc1ccc2c(c1)[C@@]13CCCC[C@H]1[C@@H](C2)N(CC1CCC1)CC3
Partial Agonist

Name the reported Functional Activity at μ opioid receptor value associated with the compound C=CCN1CC[C@]23c4c5ccc(OC(=O)CCCCCCCCC(=O)Oc6ccc7c(c6)[C@@]68CCCC[C@H]6C(C7)N(CC6CCC6)CC8)c4O[C@H]2CCC[C@H]3[C@H]1C5 [compound 11, reference compound]
Partial Agonist

* * *

# experimentalTarget: κ opioid receptor (Homo sapiens, UniProt P41145)
# Sequence (P41145 whole entry): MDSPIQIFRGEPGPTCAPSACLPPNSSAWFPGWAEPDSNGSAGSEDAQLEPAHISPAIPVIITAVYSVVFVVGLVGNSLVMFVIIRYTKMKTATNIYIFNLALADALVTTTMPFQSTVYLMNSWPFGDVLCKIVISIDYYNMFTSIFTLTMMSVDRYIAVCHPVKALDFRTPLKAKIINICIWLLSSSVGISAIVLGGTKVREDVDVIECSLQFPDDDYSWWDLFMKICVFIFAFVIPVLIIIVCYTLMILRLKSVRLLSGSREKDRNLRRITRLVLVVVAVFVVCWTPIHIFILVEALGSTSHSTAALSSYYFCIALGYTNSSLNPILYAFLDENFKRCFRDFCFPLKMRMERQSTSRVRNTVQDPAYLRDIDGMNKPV
# assayName: [35S]GTPγS binding mediated by the kappa opioid receptor, antagonist effects
# Type: biochemical
# conditionDetails: binding stimulated with 100 nM U50,488, set at 100% control
reportedEndpoint: Imax (% inhibition) ± S.E.M., Kappa Antagonist Effects

CC(CCCCCCC(C)C(=O)Oc1ccc2c(c1)[C@@]13CCCC[C@H]1[C@@H](C2)N(CC1CCC1)CC3)C(=O)O (stereo partly drawn) = No inhibition
CC(CCCCCCC(C)C(=O)Oc1ccc2c(c1)[C@@]13CCCC[C@H]1[C@@H](C2)N(CC1CCC1)CC3)C(=O)Oc1ccc2c(c1)[C@@]13CCCC[C@H]1[C@@H](C2)N(CC1CCC1)CC3 (stereo partly drawn) = No inhibition
C=CCN1CC[C@]23c4c5ccc(OC(=O)CCCCCCCCC(=O)Oc6ccc7c(c6)[C@@]68CCCC[C@H]6C(C7)N(CC6CCC6)CC8)c4O[C@H]2CCC[C@H]3[C@H]1C5 [compound 11, reference compound] = No inhibition

* * *

# experimentalTarget: κ opioid receptor (Homo sapiens)
# assayName: [35S]GTPγS binding mediated by the kappa opioid receptor, antagonist effects
# Format: biochemical
# conditionDetails: binding stimulated with 100 nM U50,488, set at 100% control
reportedEndpoint: Imax (% inhibition) ± S.E.M., Kappa Antagonist Effects

O=C(O)CCCCCCCCC(=O)Oc1ccc2c(c1)[C@@]13CCCC[C@H]1[C@@H](C2)N(CC1CCC1)CC3 [compound 9, reference compound] = No inhibition
CC(C)(CCCCCCC(C)(C)C(=O)Oc1ccc2c(c1)[C@@]13CCCC[C@H]1[C@@H](C2)N(CC1CCC1)CC3)C(=O)Oc1ccc2c(c1)[C@@]13CCCC[C@H]1[C@@H](C2)N(CC1CCC1)CC3 = No inhibition
O=C(CCCCCCCCC(=O)Oc1ccc2c(c1)[C@@]13CCCC[C@H]1[C@@H](C2)N(CC1CCC1)CC3)Oc1ccc2c(c1)[C@@]13CCCC[C@H]1[C@@H](C2)N(CC1CCC1)CC3 [compound 10, reference compound] = No inhibition

src = paper PMC2788666
